molecular target: UniProtKB P33032; assay: Agonist activity at human MC5 receptor expressed in CHO cells assessed as cAMP accumulation at 10 uM relative to alpha-MSH; type: functional, cell-based
Sequence (P33032 whole entry): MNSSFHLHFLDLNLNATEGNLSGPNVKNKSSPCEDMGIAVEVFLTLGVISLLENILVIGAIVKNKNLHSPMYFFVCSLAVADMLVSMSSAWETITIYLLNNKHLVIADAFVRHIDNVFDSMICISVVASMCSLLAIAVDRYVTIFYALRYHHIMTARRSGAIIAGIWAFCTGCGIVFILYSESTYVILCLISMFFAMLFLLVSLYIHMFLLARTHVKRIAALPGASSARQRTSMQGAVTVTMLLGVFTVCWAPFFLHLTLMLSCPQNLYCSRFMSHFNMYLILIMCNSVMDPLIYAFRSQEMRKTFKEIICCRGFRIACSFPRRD
readout_kind: Activity (%)
Answers are plain numbers, in %.

Worked examples follow.
- C[C@H]1CN(C(=O)N[C@H](Cc2ccc(F)cc2)C(=O)N2CCC(C(=O)NC(C)(C)C)(C3CCCCC3)CC2)C[C@H](C)N1: 30
- C[C@@H]1CN(C(=O)N[C@H](Cc2ccc(F)cc2)C(=O)N2CCC(C(=O)NC(C)(C)C)(C3CCCCC3)CC2)C[C@@H](C)N1: 31
- C[C@@H]1CN(C(=O)N[C@H](Cc2ccc(Cl)cc2)C(=O)N2CCC(C(=O)NC(C)(C)C)(C3CCCCC3)CC2)C[C@H](C)N1: 26

Field: Activity. Fill in for each record below.
1. CC[C@@H]1CN(C(=O)N[C@H](Cc2ccc(F)cc2)C(=O)N2CCC(C(=O)NC(C)(C)C)(C3CCCCC3)CC2)C[C@H](CC)N1
2. C[C@@H]1CN(C(=O)N[C@H](Cc2ccc(F)cc2)C(=O)N2CCC(C(=O)NC(C)(C)C)(C3CCCCC3)CC2)C[C@H](C)N1C
3. C[C@@H]1CN(C(=O)N[C@H](Cc2ccc(F)cc2)C(=O)N2CCC(C(=O)NC(C)(C)C)(C3CCCCC3)CC2)C[C@H](C)N1
4. CC[C@@H]1CN(C(=O)N[C@H](Cc2ccc(F)cc2)C(=O)N2CCC(C(=O)NC(C)(C)C)(C3CCCCC3)CC2)C[C@@H](CC)N1

OUT:
[14, 14, 22, 1]
